Reported inhibition at 0.01 µg/mL values follow for various compounds
- Test system: HBV
- measurement_protocol: Inhibition of HBV proliferation in HBV producing cell line HepG 2.2.15 (competitive PCR of culture supernatant)
- Type: cell-based, Hepatitis B virus
- test_conditions: Hepatitis B virus, HepG2.2.15, 168 h; 0.01 μg/ml, HepG 2.2.15, one week; read-out: Inhibitory effect on the HBV proliferation, Inhibition activity on HBV-RT (%)
measured_property: inhibition at 0.01 µg/mL (%)

>  <compound>
CSc1ncc(C(=O)NN2CCOCC2)c(Nc2ccc3[nH]ncc3c2)n1 [Example 35]

>  <tgt>
HBV

>  <measured_property>
inhibition at 0.01 µg/mL

>  <val>
29

$$$$
>  <compound>
CSc1ncc(C(=O)NCCO)c(Nc2ccc3cn[nH]c3c2)n1 [Example 8]

>  <tgt>
HBV

>  <measured_property>
inhibition at 0.01 µg/mL

>  <val>
40

$$$$
>  <compound>
CSc1ncc(C(=O)NCc2cccnc2)c(Nc2ccc3[nH]ncc3c2)n1 [Example 25]

>  <tgt>
HBV

>  <measured_property>
inhibition at 0.01 µg/mL

>  <val>
40

$$$$
>  <compound>
CSc1ncc(C(=O)NCCO)c(Nc2ccc3[nH]ncc3c2)n1 [Example 7]

>  <tgt>
HBV

>  <measured_property>
inhibition at 0.01 µg/mL

>  <val>
21

$$$$
>  <compound>
CSc1ncc(C(N)=O)c(Nc2ccc3cn[nH]c3c2)n1 [Example 2]

>  <tgt>
HBV

>  <measured_property>
inhibition at 0.01 µg/mL

>  <val>
20

$$$$
